Some compounds, each annotated with its measured pKd.
# measured-on: KMT9 (Homo sapiens, UniProt Q9Y5N5)
# Sequence (Q9Y5N5 whole entry): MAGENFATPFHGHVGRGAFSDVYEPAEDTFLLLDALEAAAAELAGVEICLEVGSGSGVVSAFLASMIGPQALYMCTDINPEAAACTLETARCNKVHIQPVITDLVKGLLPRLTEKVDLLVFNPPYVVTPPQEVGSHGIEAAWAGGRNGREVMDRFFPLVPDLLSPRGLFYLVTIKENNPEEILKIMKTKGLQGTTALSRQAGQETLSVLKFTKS
# Sequence (Q9UI30 1-120 isoform Q9UI30-2 partner): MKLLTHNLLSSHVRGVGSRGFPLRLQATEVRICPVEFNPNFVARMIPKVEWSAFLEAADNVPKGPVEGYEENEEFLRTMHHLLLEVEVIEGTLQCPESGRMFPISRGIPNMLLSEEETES
# measurement-protocol: Microscale thermophoresis (MST) KMT9 binding
# test-parameters: microscale thermophoresis, His-tag labelled KMT9 (20 nM); read-out: MST
pKd: −log10 of the molar value.

compound: CNc1ncnc2c1ccn2[C@@H]1C[C@H](C[S+]([O-])CCNCCc2ccccc2)[C@@H](O)[C@H]1O (stereo partly shown) [432 (304)]
pKd: < 6.00

Field pKd (entry CNc1ncnc2c1ccn2[C@@H]1O[C@H](CNCCCNCCc2ccccc2)[C@@H](O)[C@H]1O [309 (208)] ) reads < 6.00

Field pKd (entry C=Cc1cn([C@@H]2C[C@H](CNCCCNCCc3ccccc3)[C@@H](O)[C@H]2O)c2ncnc(N)c12 [464 (338)] ) reads 7.00 to 8.00

Field pKd (entry CNc1ncnc2c1ccn2[C@@H]1C[C@H](CN(CCCNCCc2cccc(Oc3ccccc3)c2)CC2CC2)[C@@H](O)[C@H]1O [360 (270)] ) reads 6.00 to 7.00

Field pKd (entry CNc1ncnc2c1ccn2[C@@H]1C[C@H](C(=O)NCCNCCc2cccc(Oc3ccccc3)c2)[C@@H](O)[C@H]1O [356 (260)] ) reads 6.00 to 7.00

Field pKd (entry Nc1ncnc2c1c(Br)cn2[C@@H]1C[C@H](CNC[C@@H]2CCCNC2)[C@@H](O)[C@H]1O [456 (328)] ) reads < 6.00

Field pKd (entry NC[C@H]1C[C@@H](n2cc3c4c(ncnc42)NCCCC3)[C@H](O)[C@@H]1O [Compound 630] ) reads < 6.00
